target: Ribosyldihydronicotinamide dehydrogenase [quinone] (Homo sapiens) (UniProt P16083); assay: Inhibition of […] reductase 2 using MTT and NMeH as substrates
Sequence (P16083 whole entry): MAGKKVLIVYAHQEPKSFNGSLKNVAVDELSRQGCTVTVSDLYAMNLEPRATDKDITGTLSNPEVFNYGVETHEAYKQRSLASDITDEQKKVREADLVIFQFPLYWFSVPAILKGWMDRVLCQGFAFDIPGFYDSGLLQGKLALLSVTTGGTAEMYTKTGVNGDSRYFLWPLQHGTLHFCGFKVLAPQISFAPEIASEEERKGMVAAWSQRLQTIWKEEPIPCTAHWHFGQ
Values of Imax greater than or equal to 80% map to class 1; values below map to class 0.

Answered examples (3):
Molecule | Assigned Class
CC(=O)Nc1ccc2c(c1)C(CC#N)C(=O)N2C (stereo not given) | class 1
CC(=O)Nc1ccc2c(c1)C(CC#N)C(=O)N2 (stereo not given) | class 1
CC(=O)NCCC1(O)C(=O)Nc2ccc(NC(C)=O)cc21 (stereo not given) | class 0

Now for another entry.
IN: Evaluate "COc1ccc2[nH]cc(CCNC(C)=O)c2c1" : Imax at minimum 80%?
OUT: class 1
